# Tested on: SW-620
# Run Description: Antitumor activity against human SW620 cells assessed as cell growth inhibition
# Assay type: functional, cell-based

| Cpd Smiles | IC50, nM |
| --- | --- |
| C=CCc1cccc(/C=N/NC(=O)Cn2cnc3ccc([N+](=O)[O-])cc3c2=O)c1O | 70 |

---

# System: SW480
# Run Description: Antitumor activity against human SW480 cells assessed as inhibition of cell growth incubated for 24 to 48 hrs
# Assay type: functional, cell-based
pIC50: −log10 of the molar value.
pIC50 values by entry

| Molecule | pIC50 |
| --- | --- |
| C=CCSC[C@H](NC(=O)Cc1ccccc1Nc1c(Cl)cccc1Cl)C(=O)OCC | 4.51 |
| C=CCSC[C@H](NC(=O)c1ccccc1O)C(=O)OCC | 4.51 |
| C=CCSC[C@H](NC(=O)C(C)c1ccc2cc(OC)ccc2c1)C(=O)OCC (stereo partly drawn) | 4.51 |

---

# Tested on: MCF7
# Run Description: Antitumor activity against human MCF7 cells assessed as inhibition of cell proliferation
# Assay type: functional, cell-based
pIC50: −log10 of the molar value.
Endpoint Label: pIC50

| Cpd Smiles | Endpoint Label | Numeric Value |
| --- | --- | --- |
| COc1cccc2c1C(=O)c1c(O)c3c(c(O)c1C2=O)C[C@@](O)(C(=O)CO)C[C@@H]3O[C@H]1C[C@H](N)[C@H](O)[C@H](C)O1 | pIC50 | 6.30 |

---

# Tested on: PC-3
# Run Description: Antitumor activity against human PC-3 cells assessed as cell growth inhibition
# Format: functional, cell-based
Endpoint Label: IC50 (µM)

| Cpd Smiles | Study System | Numeric Value |
| --- | --- | --- |
| C=CCOc1cccc2c1C(=O)C=C(C)C2=O | PC-3 | 32.2 |
| C=CCc1cccc(/C=N/NC(=O)Cn2cnc3ccc([N+](=O)[O-])cc3c2=O)c1O | PC-3 | 0.07 |

---

# Run Description: Antitumor activity against human Osteosarcoma cells assessed as increase in intracellular calcium concentration
# Assay type: functional, cell-based
# Experimental Parameters: Osteosarcoma cell
pEC50: −log10 of the molar value.
Endpoint Label: pEC50

| Compound | Numeric Value |
| --- | --- |
| C=CCc1ccc2c(c1)OCO2 [SAFROLE] | 3.35 |
